- EXPERIMENT: qHTS assay to identify small molecule antagonists of the estrogen related receptor (ERR) signaling pathway from Tox21 library - cell viability counter screen (AID 1224834); also: % is scaled to controls: 0 for no effect and ±100 for the full control effect; nearly all actives have a fitted effect of over 30% in size
- APPLIED_CONDITIONS: ERR reporter cells viability, CellTiter-Fluor, 17.5 h; series mostly up to 92.4 µM
Results filed as inconclusive are left out. Active and inactive are the calls of the source. Calls follow the shape of the dose curve; as a rule, active = well fitted cell-killing curve with a large enough effect in the repeat runs; inconclusive = weak or mixed curves; inactive = flat fitted curve, though single readings scatter.
EXPERIMENTAL_READOUT: viability change, negative = cytotoxic

[[record]]
compound = "O=C(Cl)CCl"
val = "inactive"

[[record]]
compound = "CNC(=O)NC(O)C(Cl)(Cl)Cl (stereo not drawn)"
val = "inactive"

[[record]]
compound = "CCC(CC)(CNC(=O)CCCO)c1cccc(OC)c1"
val = "inactive"

[[record]]
compound = "COc1ccccc1OC"
val = "inactive"

[[record]]
compound = "CCOP(=S)(OCC)Oc1ccc(Cl)cc1Cl"
val = "inactive"

[[record]]
compound = "CC(Cl)(Cl)Cl"
val = "inactive"

[[record]]
compound = "C=CCC1(C(C)CC)C(=O)NC(=O)NC1=O (stereo not drawn)"
val = "inactive"

[[record]]
compound = "COP(=O)(OC)O/C(C)=C/C(=O)N(C)C"
val = "inactive"

[[record]]
compound = "CC(C)(C)NC[C@H](O)c1ccc(O)cc1Cl"
val = "inactive"

[[record]]
compound = "CCCCCCC(=O)CCCCCC/C=C/C[C@@H](O)[C@H](O)[C@@](N)(CO)C(=O)O"
val = "6.53% [at 19 µM] (inactive)"

[[record]]
compound = "CCN(CCO)CCn1c(Cc2ccccc2)nc2c1c(=O)n(C)c(=O)n2C"
val = "inactive"

[[record]]
compound = "C/C=C/CC#N"
val = "inactive"

[[record]]
compound = "C[C@]12C=CC(=O)C=C1CC[C@@H]1[C@@H]2CC[C@@]2(C)[C@H]1CC[C@]2(C)O"
val = "inactive"

[[record]]
compound = "Cc1ccc2c(c1)C1CN(C)CCC1N2 (stereo not drawn)"
val = "8.02% [at 19 µM] (inactive)"

[[record]]
compound = "CN(C)C(=O)Oc1cc(OC(=O)N(C)C)cc(C(O)CNC(C)(C)C)c1 (stereo not drawn)"
val = "inactive"

[[record]]
compound = "CC1NCCOC1c1ccccc1 (stereo not drawn)"
val = "inactive"

[[record]]
compound = "NNCc1ccccc1"
val = "inactive"

[[record]]
compound = "CC(=NC#N)N(C)Cc1ccc(Cl)nc1"
val = "inactive"

[[record]]
compound = "C#CCOC(=O)/C=C(C)/C=C/CC(C)CCCC(C)C (stereo not drawn)"
val = "inactive"

[[record]]
compound = "CN(CCO)CCO"
val = "inactive"

[[record]]
compound = "CCC(C(N)=O)N1CCCC1=O (stereo not drawn)"
val = "inactive"

[[record]]
compound = "C(COCC1CO1)OCC1CO1 (stereo not drawn)"
val = "inactive"

[[record]]
compound = "C=C1C[C@@H]2[C@H](CC[C@]3(C)C(=O)CC[C@@H]23)[C@@]2(C)C=CC(=O)C=C12"
val = "inactive"

[[record]]
compound = "COc1ccc2c(C(=O)c3ccc(Cl)cc3)c(C)n(CC(=O)O)c2c1"
val = "inactive"

[[record]]
compound = "CC(=O)OCC1=C(C(=O)O)N2C(=O)[C@@H](N)[C@H]2SC1"
val = "3.81% [at 19 µM] (inactive)"

[[record]]
compound = "COC[C@@H](NC(C)=O)C(=O)NCc1ccccc1"
val = "inactive"

[[record]]
compound = "O=C(Cl)/C=C/C(=O)Cl"
val = "inactive"

[[record]]
compound = "ClC(Cl)(Cl)Cl"
val = "inactive"

